IC50 for assorted compounds
System: SARS-CoV-2
Test: microbe, parasite or virus in culture
Settings: Severe acute respiratory syndrome coronavirus 2, Vero C1008, 48 h, read-out: pIC50 (converted)

[
  {
    "compound": "CC[N+]1(C)CCCC(OC(=O)C(O)(c2ccccc2)c2ccccc2)C1 (stereo not drawn) [PIPENZOLATE]",
    "system_tested": "SARS-CoV-2",
    "IC50": "> 20 µM"
  },
  {
    "compound": "CC1(C)O[C@@H]2C[C@H]3[C@@H]4CCC5=CC(=O)C=C[C@]5(C)[C@@]4(F)[C@@H](O)C[C@]3(C)[C@]2(C(=O)CO)O1 [TRIAMCINOLONE ACETONIDE]",
    "system_tested": "SARS-CoV-2",
    "IC50": "> 20 µM"
  },
  {
    "compound": "NCCCC[C@H](NC(=O)[C@@H](Cc1cc(Br)c(O)c(Br)c1)NC(=O)N1CCC(N2Cc3ccccc3NC2=O)CC1)C(=O)N1CCN(c2ccncc2)CC1",
    "system_tested": "SARS-CoV-2",
    "IC50": "> 20 µM"
  },
  {
    "compound": "COc1ccccc1C(=O)NCCc1ccc(S(=O)(=O)NC(=O)NC2CCCC2)cc1 [GLISENTIDE]",
    "system_tested": "SARS-CoV-2",
    "IC50": "> 20 µM"
  },
  {
    "compound": "NC(C(=O)O)C(O)c1ccc(O)c(O)c1 (stereo not drawn)",
    "system_tested": "SARS-CoV-2",
    "IC50": "> 20 µM"
  },
  {
    "compound": "CCC(OC(C)=O)C(CC(C)NC)(c1ccccc1)c1ccccc1 (stereo not drawn)",
    "system_tested": "SARS-CoV-2",
    "IC50": "> 20 µM"
  },
  {
    "compound": "Nc1ncnc2c1ncn2C1CC(O)C(CO)O1 (stereo not drawn)",
    "system_tested": "SARS-CoV-2",
    "IC50": "> 20 µM"
  },
  {
    "compound": "CC(C)CC(N(C)C)C1(c2ccc(Cl)cc2)CCC1 (stereo not drawn)",
    "system_tested": "SARS-CoV-2",
    "IC50": "> 20 µM"
  }
]
